Origin of values: ChEMBL document CHEMBL1128330

System: H9
Assay: Inhibitory concentration against HIV-1 infected H9 cell lines
Type: functional, cell-based
Conditions: Homo sapiens
MEASURED QUANTITY: IC50

Sample Cc1cn([C@H]2C[C@H](N=[N+]=[N-])[C@@H](CO)O2)c(=O)[nH]c1=O — what was its IC50?
0.07 µM
